Exercise: for every item that follows, state its recorded IC50.
# System: guinea-pig ureters
# PROCEDURE TEXT: Antispastic activity in vitro: spontaneous motility of guinea-pig ureters
# MEASUREMENT SETUP: Cavia porcellus; force of the contractions, five minutes contact, 37° C.; read-out: IC50 (force), inhibition of the spontaneous motility of guinea-pig ureters in vitro
API: value field is a number in µg/mL; no unit string.

Entry CCCCN(CCCC)C(=O)C(CCC(=O)NCCN(C)C)NC(=O)c1ccc(C)c(C)c1 (centres unmarked) : IC50 on guinea-pig ureters = 36

Entry Cc1c(-c2ccccc2)oc2c(C(=O)OCCN3CCCCC3)cccc2c1=O [Flavoxate, reference compound] : IC50 on guinea-pig ureters = 29

Entry CCCCCN(CCCOC)C(=O)C(CCC(=O)NCCN1CCOCC1)NC(=O)c1ccc(C)c(C)c1 (centres unmarked) : IC50 on guinea-pig ureters = 59

Entry CCCCCN(CCCCC)C(=O)C(CCC(=O)NCCN1CCOCC1)NC(=O)c1ccc(C)cc1 (centres unmarked) : IC50 on guinea-pig ureters = 18

Entry `CCCCCN(CCCCC)C(=O)[C@@H](CCC(=O)NCCN1CCOCC1)NC(=O)c1ccc2ccccc2c1` : IC50 on guinea-pig ureters = 32

Entry CCCCCN(CCCCC)C(=O)C(CCC(=O)NCCN(CC)CC)NC(=O)c1ccc(C)c(C)c1 (centres unmarked) : IC50 on guinea-pig ureters = 18

Entry `CN1CCN(C(=O)CC[C@@H](NC(=O)c2cc(Cl)cc(Cl)c2)C(=O)N2CCC3(CCCC3)CC2)CC1` : IC50 on guinea-pig ureters = 23

Entry CCCCCN(CCCCC)C(=O)C(CCC(=O)NCCCN1CCOCC1)NC(=O)c1ccc(C)c(C)c1 (centres unmarked) : IC50 on guinea-pig ureters = 12

* * *

# ASSAYED SYSTEM: central CCK-B receptors (guinea pig cortical membrane) (Cavia porcellus, UniProt H0VZC5)
# Construct: Cerebral cortices of white male guinea pigs were therefore used; from tissue; host or cells: guinea pig cerebral cortex membranes
# Sequence (H0VZC5 1-426): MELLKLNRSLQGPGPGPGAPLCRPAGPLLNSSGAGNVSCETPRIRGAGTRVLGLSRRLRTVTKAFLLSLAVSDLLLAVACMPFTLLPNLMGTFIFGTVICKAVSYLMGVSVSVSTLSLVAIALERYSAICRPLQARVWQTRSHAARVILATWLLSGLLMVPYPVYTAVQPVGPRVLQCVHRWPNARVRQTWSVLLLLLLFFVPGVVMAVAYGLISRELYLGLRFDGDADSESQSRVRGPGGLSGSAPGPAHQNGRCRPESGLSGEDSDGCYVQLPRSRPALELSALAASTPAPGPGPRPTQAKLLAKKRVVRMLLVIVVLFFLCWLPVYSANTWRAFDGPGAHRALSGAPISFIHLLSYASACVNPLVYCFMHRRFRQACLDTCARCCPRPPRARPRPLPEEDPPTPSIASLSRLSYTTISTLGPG
# PROCEDURE TEXT: Inhibition of binding of (3-H)[N-methyl-N-leucine]CCK-8 to guinea pig cortical membranes (anti-CCK-B)
# MEASUREMENT SETUP: read-out: IC50, binding to guinea-pig cortical membranes
EXPERIMENTAL ENDPOINT: IC50

Entry `CN1CCN(C(=O)CC[C@H](NC(=O)c2cc(Cl)cc(Cl)c2)C(=O)N2CCC3(CCCC3)CC2)CC1` : IC50 on central CCK-B receptors (guinea pig cortical membrane) (Cavia porcellus, UniProt H0VZC5) = > 1 µM

* * *

# ASSAYED SYSTEM: cholecystokinin receptors of the pancreatic cells of the rat (CCK-A) (Rattus norvegicus, UniProt P30551)
# Sequence (P30551 whole entry): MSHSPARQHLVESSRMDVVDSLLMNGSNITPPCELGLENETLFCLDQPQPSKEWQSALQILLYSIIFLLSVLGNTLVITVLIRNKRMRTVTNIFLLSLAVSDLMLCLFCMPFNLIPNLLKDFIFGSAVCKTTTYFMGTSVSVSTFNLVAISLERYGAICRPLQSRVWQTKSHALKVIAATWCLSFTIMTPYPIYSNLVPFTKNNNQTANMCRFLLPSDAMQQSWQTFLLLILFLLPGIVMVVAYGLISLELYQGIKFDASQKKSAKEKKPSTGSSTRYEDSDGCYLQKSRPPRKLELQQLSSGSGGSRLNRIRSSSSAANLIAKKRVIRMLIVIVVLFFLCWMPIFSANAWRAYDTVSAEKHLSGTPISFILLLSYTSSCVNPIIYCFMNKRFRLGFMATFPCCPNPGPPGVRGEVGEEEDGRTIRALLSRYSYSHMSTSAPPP
EXPERIMENTAL ENDPOINT: IC50 (µM)
API: value field is a number in µM; no unit string.

# IC50 of CCCCCN(CCCCC)C(=O)[C@@H](CCC(=O)NCCN1CCOCC1)NC(=O)c1ccc2ccccc2c1 [Compound 61] = 2.8

# IC50 of CCCCCN(CCCCC)C(=O)[C@@H](CCC(=O)NCCN1CCOCC1)NC(=O)c1cnc2ccccc2c1 [Compound 59] = 1.2

* * *

# System: guinea-pig ureters
# PROCEDURE TEXT: Antispastic activity in vitro: spontaneous motility of guinea-pig ureters
# MEASUREMENT SETUP: Cavia porcellus; force of the contractions, five minutes contact, 37° C.; read-out: IC50 (force), inhibition of the spontaneous motility of guinea-pig ureters in vitro
# From the text: The isotonic contractions were detected by means of a force transducer and recorded. […] A given concentration of the product under test was then introduced into the bath and left in contact with the prepared specimen for five minutes, after which the ureter was washed until its own spontaneous activity was re-established.
Exercise: for every item that follows, state its recorded IC50.
API: value field is a number in µg/mL; no unit string.

# IC50 of CN1CCN(C(=O)CC[C@H](NC(=O)c2cc(Cl)cc(Cl)c2)C(=O)N2CCC3(CCCC3)CC2)CC1 [Compound 2] = 25

# IC50 of CCCCCN(CCCCC)C(=O)C(CCC(=O)NCCN1CCOCC1)NC(=O)c1ccc(Cl)c(Cl)c1 (stereo not shown) [Compound 37] = 8

# IC50 of CCCCCN(CCCCC)C(=O)C(CCC(=O)NCC1CCCN1CC)NC(=O)c1ccc(C)c(C)c1 (stereo not shown) [Compound 58] = 14

# IC50 of CCCCCN(CCCCC)C(=O)C(CCC(=O)NCCN(C)C)NC(=O)c1ccc(C)c(C)c1 (stereo not shown) [Compound 40] = 27
